# credit: patent US20240252506A1

test system: Escherichia coli ATCC 25922; assay: Minimal Inhibitory Concentration (MIC) determination, broth microdilution (CLSI M07-A10); format: cell-based; settings: Escherichia coli, ATCC25922, strain Escherichia coli ATCC 25922, 18-24 hours at 35±2° C., lowest concentration for complete growth inhibition (no visible growth), read-out: Escherichia coli growth inhibition MIC
attribute-measured: MIC (µg/mL)
Enter your answer as a number in µg/mL; do not include the unit.

Query: Which measured MIC value corresponds to CNCCc1nc2cc3c(c(F)c2[nH]1)CC(CN1CCC2(CC1)CN(c1cnc4c(n1)NC(=O)CO4)C(=O)O2)C3 (stereo not shown) [Example 69] ?
Response: 0.25

Query: Also N[C@H]1COC[C@@H]1c1nc2c(F)c3c(c(F)c2[nH]1)CC(CN1CCC2(CC1)CN(c1cnc4c(n1)NC(=O)CO4)C(=O)O2)C3 [Example 31] , if possible.
Response: 0.25

Query: Also CNCc1nc2c(F)c3c(c(F)c2[nH]1)CC(CNC1CC2(C1)CN(c1cnc4c(n1)NC(=O)CO4)C(=O)O2)C3 (stereo not shown) [Example 19] , if possible.
Response: 0.5

Query: Also CN1CCOC(c2nc3c(F)c4c(c(F)c3[nH]2)CC(CN2CCC3(CC2)CN(c2cnc5c(n2)NC(=O)CO5)C(=O)O3)C4)C1 (stereo not shown) [Example 6] , if possible.
Response: 1

Query: Also CNCc1nc2c(F)c3c(cc2[nH]1)CC(CN1CCC2(CC1)CN(c1cnc4c(n1)NC(=O)CO4)C(=O)O2)C3.O=C(O)C(F)(F)F (stereo not shown) [Example 12] , if possible.
Response: 0.125

Query: Also CC(C)(O)c1nc2c(F)c3c(c(F)c2[nH]1)CC(CN1CCC2(CC1)CN(c1cnc4c(n1)NC(=O)CO4)C(=O)O2)C3 [Example 4] , if possible.
Response: 0.5

Query: Also Cc1nc2c(F)c3c(c(F)c2[nH]1)CC(CNCCC1CN(c2cnc4c(n2)NC(=O)CO4)C(=O)O1)C3 (stereo not shown) [Example 1] , if possible.
Response: 0.5

Query: Also CN(CCn1nc2c(F)c3c(c(F)c2n1)CC(CN1CCC2(CC1)CN(c1cnc4c(n1)NC(=O)CO4)C(=O)O2)C3)C(=O)CN.O=CO [Example 165] , if possible.
Response: 0.5

Query: Also O=C1COc2ncc(N3CC4(CCN(CC5Cc6cc7nc([C@@H]8C[C@@H](O)CN8)oc7c(F)c6C5)CC4)OC3=O)nc2N1 (single isomer, unassigned) [Example 141] , if possible.
Response: 0.5

Query: Also CN[C@@H](CO)c1nc2cc3c(c(F)c2o1)CC(CN1CCC2(CC1)CN(c1cnc4c(n1)NC(=O)CO4)C(=O)O2)C3 (single isomer, unassigned) [Example 145] , if possible.
Response: 0.5

Query: Also CN(C)CC(=O)NCCn1nnc2c(F)c3c(c(F)c21)CC(CN1CCC2(CC1)CN(c1cnc4c(n1)NC(=O)CO4)C(=O)O2)C3 (stereo not shown) [Example 168] , if possible.
Response: 0.5

Query: Also O=C1COc2ncc(N3CC4(CCN(CC5Cc6c(c(F)c7[nH]c([C@H]8CCCN8)nc7c6F)C5)CC4)OC3=O)nc2N1 [Example 24] , if possible.
Response: 0.125

Query: Also NCc1nc2c(F)c3c(c(F)c2[nH]1)CC(CN1CCC2(CC1)CN(c1cnc4c(n1)NC(=O)CO4)C(=O)O2)C3.O=C(O)C(F)(F)F [Example 10] , if possible.
Response: 0.125
